# TEST TARGET: NAD(P)H dehydrogenase [quinone] 1 (Homo sapiens)
# TEST DETAILS: Metabolism by recombinant human NQO1, using an HPLC system designed to quantify both NADH oxidation and quinone reduction
ASSAY ENDPOINT: Metabolism (µM/min/mg)

[[record]]
compound = "COC1=CC(=O)c2c(cc(C)n2C)C1=O"
test_target = "NAD(P)H dehydrogenase [quinone] 1 (Homo sapiens)"
unit_info = "µM/min/mg"
result_number = 5.31

[[record]]
compound = "COC1=CC(=O)c2c(c(CO)c3n2CCC3)C1=O"
test_target = "NAD(P)H dehydrogenase [quinone] 1 (Homo sapiens)"
unit_info = "µM/min/mg"
result_number = 4.8

[[record]]
compound = "COC1=CC(=O)c2c(c(CO)c(-c3ccc(-c4ccccc4)cc3)n2C)C1=O"
test_target = "NAD(P)H dehydrogenase [quinone] 1 (Homo sapiens)"
unit_info = "µM/min/mg"
result_number = 5.4

[[record]]
compound = "CC1CN1C1=CC(=O)c2c(c(CO)c3n2CCC3)C1=O (centres undefined)"
test_target = "NAD(P)H dehydrogenase [quinone] 1 (Homo sapiens)"
unit_info = "µM/min/mg"
result_number = 2.22


Data credit: ChEMBL document CHEMBL1131264
